Tested on: GCG (alpha cell marker)
Experiment Description: HD-DoE stage 3 screening, heat map and dynamic profiling: GCG
Format: cell-based, human
Measurement Parameters: heat map FIG. 21, dynamic profiling FIGS. 22-25
Peptide text beside a SMILES is read from it.
Measured Quantity: effect on GCG induction / alpha cell fate

INSERT INTO measurements (molecule, target, experimental_value) VALUES
  ('Cc1nn(-c2ccccc2)c(C)c1/C=N/N1CCN(Cc2ccccc2)CC1', 'GCG (alpha cell marker)', 'increased induction'),
  ('C[C@H](N)C(=O)N[C@@H](CCC(N)=O)C(=O)O [glutamax] (H-Ala-Gln-OH)', 'GCG (alpha cell marker)', 'increased induction');
